Data credit: the Human Domainome abundance scans (Beltran et al. 2025)

The following variants are shown together with reported abundance fitness values.
B1: Zinc finger homeobox protein 3, residues 2147 to 2202; numbered along this chain, Q15911 (parent)
chain: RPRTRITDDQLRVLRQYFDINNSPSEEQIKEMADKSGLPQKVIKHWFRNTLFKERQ

- Variants of: B1
- method_notes: abundance fitness (aPCA) (normalised: wild type 0, dead -1); higher = more abundant; growth selection in yeast, the domain comes from the species named
- run_conditions: Homo sapiens

Answered cases to consult:
{"sequence": "RPRTRITDTQLRVLRQYFDINNSPSEEQIKEMADKSGLPQKVIKHWFRNTLFKERQ", "readout_value": 0.038}
{"sequence": "RPRTRITDDQLRVLRQYFDINNSPSEEQIKEMADKSGLPQKVIKHWFRNTLVKERQ", "readout_value": 0.05}
{"sequence": "RPRTRITDDQLRVLRQYFDINNSPSEEQIKEMADKSGLPQKVIKHWFRNTTFKERQ", "readout_value": -0.059}
{"sequence": "RPRTRITDDQLRVLRQYFDINNSPSEEQIKEMADKSGLPQKVIKHWFRNTLGKERQ", "readout_value": 0.09}

GET /values?readout=abundance fitness&item= "RPRTRITVDQLRVLRQYFDINNSPSEEQIKEMADKSGLPQKVIKHWFRNTLFKERQ"
-0.05

Please answer likewise for "RPRTRITDFQLRVLRQYFDINNSPSEEQIKEMADKSGLPQKVIKHWFRNTLFKERQ"
-0.013

Query "RPRTRITDDQLRVLRQYFDINNSPSEEQIKEMADKSGLPQKHIKHWFRNTLFKERQ" next
-0.374

Would you mind doing "RPNTRITDDQLRVLRQYFDINNSPSEEQIKEMADKSGLPQKVIKHWFRNTLFKERQ" as well?
0.016

Queued: "RPRTRITDDQLRVLRQYFDINNSPSEEQIKEMADKSGLPQKVIKHWNRNTLFKERQ"
-0.526
